Biological target: human Siglec-2/CD22 protein (Homo sapiens)
Test: SPR binding affinity to human CD22
Conditions: steady-state analysis
Protocol: Prior to immobilization, CD22 proteins were treated with SialoExo (Genovis, Cat #G1-SM1-020) for 4 hours at 37° C. to remove native sialic acid residues. […] Binding experiments of Siglec-ligand conjugated proteins or Siglec ligand compounds were performed on the surfaces prepared above in 10 mM HEPES, 150 mM NaCl, 0.05% Tween-20, pH 7.5, 1% DMSO as the running buffer. […] Data was analyzed using steady-state analysis in Biacore Insight Evaluation Software, version 3.0 for Siglec ligand compounds.
endpoint-label: Kd

[
  {
    "molecule": "O=C(O)CCCCCCO[C@]1(C(=O)O)C[C@H](O)[C@@H](NC(=O)CO)[C@H]([C@H](O)[C@H](O)CNC(=O)Cc2ccc(Cl)cc2)O1 [Compound 98]",
    "tested-target": "human Siglec-2/CD22 protein (Homo sapiens)",
    "result": "< 1000 nM"
  }
]

Problem: Could you tell me which Kd is on file for C#CCOCCOCCO[C@]1(C(=O)O)C[C@H](O)[C@@H](NC(=O)CO)[C@H]([C@H](O)[C@H](O)CNC(=O)c2cc3c(s2)-c2ccccc2OC3)O1 [Compound 179] ?
Solution: < 1000 nM

Problem: Could you tell me which Kd is on file for C#CCOCCCCCCC(O)[C@]1(C(=O)O)C[C@H](O)[C@@H](NC(=O)CO)[C@H]([C@H](O)[C@H](O)CNC(=O)Cc2ccc(Cl)cc2)O1 (stereo partly drawn) [Compound 103] ?
Solution: < 1000 nM

----------
Target: human Siglec-2/CD22 protein (Homo sapiens, UniProt P20273)
Sequence (P20273 20-847): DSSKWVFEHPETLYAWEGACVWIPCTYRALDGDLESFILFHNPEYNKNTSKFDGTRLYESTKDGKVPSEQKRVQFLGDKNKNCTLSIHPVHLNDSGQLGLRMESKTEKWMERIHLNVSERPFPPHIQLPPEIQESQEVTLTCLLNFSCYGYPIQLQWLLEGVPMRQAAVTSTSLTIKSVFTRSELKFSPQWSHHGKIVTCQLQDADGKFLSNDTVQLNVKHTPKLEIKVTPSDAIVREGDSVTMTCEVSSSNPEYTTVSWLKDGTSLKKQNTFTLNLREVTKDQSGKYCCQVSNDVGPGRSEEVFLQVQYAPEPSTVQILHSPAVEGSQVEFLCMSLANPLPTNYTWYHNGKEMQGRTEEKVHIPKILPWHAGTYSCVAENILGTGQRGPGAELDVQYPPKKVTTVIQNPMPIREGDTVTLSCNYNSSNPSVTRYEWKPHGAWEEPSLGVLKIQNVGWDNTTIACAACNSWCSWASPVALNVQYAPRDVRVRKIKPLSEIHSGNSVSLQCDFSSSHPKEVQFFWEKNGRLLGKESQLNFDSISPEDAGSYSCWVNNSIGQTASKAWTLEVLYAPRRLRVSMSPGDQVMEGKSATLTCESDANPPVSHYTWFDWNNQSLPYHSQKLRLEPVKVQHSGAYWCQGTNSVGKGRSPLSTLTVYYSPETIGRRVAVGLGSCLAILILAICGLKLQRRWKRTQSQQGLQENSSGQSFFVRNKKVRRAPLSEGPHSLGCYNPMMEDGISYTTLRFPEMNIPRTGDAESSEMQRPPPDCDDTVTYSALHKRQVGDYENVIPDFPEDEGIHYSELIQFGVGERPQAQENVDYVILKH
Test: SPR binding affinity to human CD22
Settings: steady-state analysis
List of Kd values.

[
  {
    "compound": "C#CCOc1ccc(CO[C@]2(C(=O)O)C[C@H](O)[C@@H](NC(=O)CO)[C@H]([C@H](O)[C@H](O)CNC(=O)Cc3ccc(-c4ccc(O)cc4)cc3OC)O2)cc1 [Compound 51]",
    "result": "< 1000 nM"
  }
]

Problem: Could you tell me which Kd is on file for C#CCCOc1ccc(CO[C@]2(C(=O)O)C[C@H](O)[C@@H](NC(=O)CO)[C@H]([C@H](O)[C@H](O)CNC(=O)C3(c4ccccc4)CC3)O2)cc1 [Compound 173] ?
Solution: 1000 to 10000 nM

Problem: Could you tell me which Kd is on file for C#CCOCCCCCCO[C@]1(C(=O)O)C[C@H](O)[C@@H](NC(=O)Cc2nn[nH]n2)[C@H]([C@H](O)[C@H](O)CNC(=O)Cc2ccc(Cl)cc2)O1 [Compound 208] ?
Solution: 1000 to 10000 nM

Problem: Could you tell me which Kd is on file for C#CCOCCOCCO[C@]1(C(=O)O)C[C@H](O)[C@@H](NC(=O)CO)[C@H]([C@H](O)[C@H](O)CNC(=O)Cc2cccc(-c3ccccc3)c2)O1 [Compound 33] ?
Solution: < 1000 nM

Problem: Could you tell me which Kd is on file for CC(=O)NCCOCCOCCOCCOCCNC(=O)CCCCCCO[C@]1(C(=O)O)C[C@H](O)[C@@H](NC(=O)CO)[C@H]([C@H](O)[C@H](O)CNC(=O)Cc2ccc(-c3nnn[nH]3)cc2)O1 [Cpd. 266] ?
Solution: < 1000 nM
